Numbers sourced from patent US11472766B2.

- assay_name: Apparent pKa of LNP formulations (TNS fluorescence assay)
- condition_set: LNP cationic lipid/DSPC/cholesterol/DMG-PEG 50/10/38.5/1.5 mol %, Table 3

[
  {
    "molecule": "CCCCCCCCC(CCCCCC)CC(=O)NCCCCCN(CCCCCNC(=O)CC(CCCCCC)CCCCCCCC)CCN(CCO)C1CCCCC1 (stereo not drawn) [Compound 115]",
    "Apparant Pka": 6.732
  },
  {
    "molecule": "CCCCCCCCC(CCCCCC)CNC(=O)CCCCCN(CCCCCC(=O)NCC(CCCCCC)CCCCCCCC)CCN(CCO)C1CC1 (stereo not drawn) [Compound 110]",
    "Apparant Pka": 6.696
  },
  {
    "molecule": "CCCCCCCCC(O)CN(CCN(CCCCCC(=O)OCC(CCCCCC)CCCCCCCC)CCCCCC(=O)OCC(CCCCCC)CCCCCCCC)C1CCC1 (stereo not drawn) [Compound 34]",
    "Apparant Pka": 5.29
  },
  {
    "molecule": "CCCCCCCCC(CCCCCC)CNC(=O)CCCCCN(CCCCCC(=O)OCC(CCCCCC)CCCCCCCC)CCN(CCC)C1CCC(O)CC1 (stereo not drawn) [Compound 133]",
    "Apparant Pka": 6.668
  },
  {
    "molecule": "CCCCCCCCCCCOC(=O)CCCCCN(CCCCCC(=O)OCC(CCCCCCCC)CCCCCCCC)CCN(CCO)C1CCCC1 [Compound 82]",
    "Apparant Pka": 6.406
  },
  {
    "molecule": "CCCCCCCCC(CCCCCC)C(CC)OC(=O)CCCCCN(CCCCCC(=O)OC(CC)C(CCCCCC)CCCCCCCC)CCN(CCO)C1CCC1 (stereo not drawn) [Compound 39]",
    "Apparant Pka": 6.061
  }
]
